Assay: Solubility assessment (solvent added in 10 volume aliquots)
Format: physicochemical
Conditions: i-propyl acetate, organic solvent or mixture, thermodynamic from solid, i-propyl acetate, 40 vols; read-out: Solubility assessment observation
quantity: solubility

Request: Data request, read-out solubility, for C1=C2COC/C=C/COCc3cc(ccc3OCCN3CCCC3)Nc3nccc(n3)C(=C1)O2
Result: < 25 mg/mL

###

Test: Solubility assessment (solvent added in 10 volume aliquots)
Format: physicochemical
Conditions: acetone, organic solvent or mixture, thermodynamic from solid, Acetone, 100 vols; read-out: Solubility assessment observation
Description: For each solvent investigated, approximately 8 mg of compound 1 was weighed into an 8 ml screw top glass vial. The solvent was added in 10 volume aliquots and the mixture sonicated and warmed (with a hot-air gun) to encourage dissolution. If dissolution was not achieved after the addition of 100 volumes of solvent, a further 100 volumes was added.
quantity: solubility

Request: Data request, read-out solubility, for C1=C2COC/C=C/COCc3cc(ccc3OCCN3CCCC3)Nc3nccc(n3)C(=C1)O2 [Batch 5]
Result: < 10000 µg/mL
